- System: HepG2
- assay_text: Cytotoxicity against human HepG2 cells after 48 hrs by MTT assay
- Assay type: functional, cell-based
- measurement_parameters: HepG2, 48 h
measured_property: pIC50
Recall that pIC50 is obtained by taking minus log10 of the concentration measured in molar.

*Q* Please provide the recorded pIC50 for COc1ccc(CNC(=O)CSc2nc3ccc(NC(C)=O)cc3s2)cc1 , tested on HepG2.
*A* 4.95

*Q* GET /values?readout=pIC50&system=HepG2&item= COc1ccc(CNC(=O)CSc2nc3ccc(NC(=O)c4ccccc4)cc3s2)cc1
*A* 4.90

*Q* Give recorded pIC50 with HepG2 for the following compound: COc1ccc(CNC(=O)CSc2nc3ccc(NC(=O)CCl)cc3s2)cc1
*A* 5.70

*Q* Which pIC50 is reported with HepG2 for this entry: COc1ccccc1C(=O)Nc1ccc2nc(SCC(=O)NCc3ccc(Cl)cc3)sc2c1 ?
*A* 6.22

*Q* Test system HepG2; read-out pIC50; what value for COc1ccc(CNC(=O)CSc2nc3ccc(NC(=O)c4ccccc4OC)cc3s2)cc1 ?
*A* 5.68

*Q* Notebook: pull reported pIC50 for HepG2, entry CNC(=O)CSc1nc2ccc(NC(=O)c3ccc(Cl)cc3)cc2s1
*A* 4.82

*Q* Entry CNC(=O)CSc1nc2ccc(NC(=O)c3ccccc3)cc2s1 , system HepG2: what pIC50 was measured?
*A* 4.58

*Q* Request: pIC50, test system HepG2, entry COc1ccc(CNC(=O)CSc2nc3ccc(NC(=O)c4ccc(Cl)cc4)cc3s2)cc1
*A* 5.13

*Q* # returns recorded pIC50 (system: HepG2) for CC(=O)Nc1ccc2nc(SCC(=O)NCc3ccccc3)sc2c1
*A* 5.04

*Q* // map O=C(CSc1nc2ccc(NC(=O)c3ccc(Cl)cc3)cc2s1)NCc1ccccc1 to recorded pIC50 (system: HepG2)
*A* 4.60

*Q* Form entry - test system: HepG2; read-out: pIC50; compound: O=C(CSc1nc2ccc(NC(=O)c3ccc(Cl)cc3)cc2s1)NCc1ccc(Cl)cc1
*A* 4.75

*Q* Notebook entry, HepG2 assay: pIC50 of COc1ccccc1C(=O)Nc1ccc2nc(SCC(=O)NCc3ccccc3)sc2c1 = ?
*A* 5.10

*Q* Query the reported pIC50 for HepG2; item: CNC(=O)CSc1nc2ccc(NC(=O)CCl)cc2s1
*A* 5.72

*Q* Value wanted: pIC50 (HepG2) of entry O=C(CSc1nc2ccc(NC(=O)CCl)cc2s1)NCc1ccccc1
*A* 5.96
